Tested on: B-ALL
Test: Cytotoxicity against BCR-ABL p185-positive mouse B-ALL cells overexpressing human MCL-1 assessed as inhibition of cell viability after 24 hrs by AnnexinV-FITC/propidium iodide staining based flow cytometric analysis
Format: functional
measured-parameter: IC50 (µM)

smiles_data=CC(=O)O[C@H]1/C2=C/[C@@H](C)C(=O)C[C@H]3[C@@H](/C=C(\C)C(=O)[C@H]2C[C@H]1C)C3(C)C target_desc=B-ALL measured_parameter=IC50 readout_unit=µM measurement=3.31

* * *

Test: Half life in human plasma
Format: ADME, cell-free
measured-parameter: half-life (h)

smiles_data=CC(=O)O[C@H]1/C2=C/[C@@H](C)C(=O)C[C@H]3[C@@H](/C=C(\C)C(=O)[C@H]2C[C@H]1C)C3(C)C readout_unit=h measurement=19.5

* * *

Tested on: B-ALL
Experiment: Cytotoxicity against BCR-ABL positive p185-positive mouse B-ALL cells expressing human BCL-W assessed as inhibition of cell viability after 24 hrs by AnnexinV-FITC/propidium iodide staining based flow cytometric analysis
Assay type: functional
measured-parameter: IC50 (µM)

smiles_data=CC(=O)O[C@H]1/C2=C/[C@@H](C)C(=O)C[C@H]3[C@@H](/C=C(\C)C(=O)[C@H]2C[C@H]1C)C3(C)C readout_unit=µM measurement=14.4

* * *

Test: Half life in simulated gastric fluid
Format: ADME
measured-parameter: half-life (h)

smiles_data=CC(=O)O[C@H]1/C2=C/[C@@H](C)C(=O)C[C@H]3[C@@H](/C=C(\C)C(=O)[C@H]2C[C@H]1C)C3(C)C readout_unit=h measurement=124

* * *

Assay: Half life in human liver microsomes
Assay type: ADME, Microsome
measured-parameter: half-life (min)

smiles_data=CC(=O)O[C@H]1/C2=C/[C@@H](C)C(=O)C[C@H]3[C@@H](/C=C(\C)C(=O)[C@H]2C[C@H]1C)C3(C)C measured_parameter=half-life measurement=31

* * *

Assay: Protein binding in human plasma
Format: ADME, cell-free
Conditions: read-out: PPB (converted)
measured-parameter: fraction unbound

smiles_data=CC(=O)O[C@H]1/C2=C/[C@@H](C)C(=O)C[C@H]3[C@@H](/C=C(\C)C(=O)[C@H]2C[C@H]1C)C3(C)C measurement=0.16
